# assay.target: T1, human CD11a (human) (UniProt P20701)
# T1 sequence (looked up): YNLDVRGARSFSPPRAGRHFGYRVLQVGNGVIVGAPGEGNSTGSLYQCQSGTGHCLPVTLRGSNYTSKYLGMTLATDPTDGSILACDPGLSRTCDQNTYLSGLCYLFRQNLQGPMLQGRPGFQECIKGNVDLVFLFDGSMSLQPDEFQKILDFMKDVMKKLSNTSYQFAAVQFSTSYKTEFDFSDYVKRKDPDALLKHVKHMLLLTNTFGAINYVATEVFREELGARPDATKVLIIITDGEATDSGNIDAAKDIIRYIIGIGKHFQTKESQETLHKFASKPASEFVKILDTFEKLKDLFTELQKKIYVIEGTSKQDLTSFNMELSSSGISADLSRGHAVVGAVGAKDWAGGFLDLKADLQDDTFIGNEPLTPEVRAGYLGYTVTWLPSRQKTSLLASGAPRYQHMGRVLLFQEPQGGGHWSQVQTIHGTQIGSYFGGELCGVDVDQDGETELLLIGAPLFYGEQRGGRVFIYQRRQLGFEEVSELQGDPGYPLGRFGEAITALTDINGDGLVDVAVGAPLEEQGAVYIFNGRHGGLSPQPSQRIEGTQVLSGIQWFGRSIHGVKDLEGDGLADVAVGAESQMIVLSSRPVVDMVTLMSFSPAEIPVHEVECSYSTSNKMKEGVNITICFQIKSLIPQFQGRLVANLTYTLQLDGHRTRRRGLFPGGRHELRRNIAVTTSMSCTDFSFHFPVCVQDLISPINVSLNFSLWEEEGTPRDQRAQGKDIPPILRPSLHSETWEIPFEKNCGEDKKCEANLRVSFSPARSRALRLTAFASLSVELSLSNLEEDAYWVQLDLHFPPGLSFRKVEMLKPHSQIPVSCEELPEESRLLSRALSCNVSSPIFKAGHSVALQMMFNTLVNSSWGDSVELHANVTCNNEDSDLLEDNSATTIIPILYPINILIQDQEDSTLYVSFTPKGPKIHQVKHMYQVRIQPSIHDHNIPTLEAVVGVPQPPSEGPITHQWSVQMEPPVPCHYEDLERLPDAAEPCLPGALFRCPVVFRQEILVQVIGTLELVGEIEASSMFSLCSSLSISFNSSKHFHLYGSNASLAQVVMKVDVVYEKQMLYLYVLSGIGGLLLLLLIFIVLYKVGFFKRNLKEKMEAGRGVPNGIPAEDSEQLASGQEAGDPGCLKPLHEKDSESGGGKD
# assay.name: FACScan, Jurkat cells
Entries and their Var.EC50/HuIgG1 EC50 values follow.
API note: the answer field is a bare number with no unit suffix.

Worked cases, answers included:
binder	Var.EC50/HuIgG1 EC50
GlnH61Ala variant IgG1 (antibody, V domains shown) VH: EVQLVESGGGLVQPGGSLRLSCAASGYSFTGHWMNWVRQAPGKGLEWVGMIHPSDSETRYNAKFKDRFTISVDKSKNTLYLQMNSLRAEDTAVYYCARGIYFYGTTYFDYWGQGTLVTVSS VL: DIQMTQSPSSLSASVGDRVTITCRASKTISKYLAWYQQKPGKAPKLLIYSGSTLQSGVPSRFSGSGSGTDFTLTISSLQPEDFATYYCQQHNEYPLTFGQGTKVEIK	4.1
LysH62Ala variant IgG1 (antibody, V domains shown) VH: EVQLVESGGGLVQPGGSLRLSCAASGYSFTGHWMNWVRQAPGKGLEWVGMIHPSDSETRYNQAFKDRFTISVDKSKNTLYLQMNSLRAEDTAVYYCARGIYFYGTTYFDYWGQGTLVTVSS VL: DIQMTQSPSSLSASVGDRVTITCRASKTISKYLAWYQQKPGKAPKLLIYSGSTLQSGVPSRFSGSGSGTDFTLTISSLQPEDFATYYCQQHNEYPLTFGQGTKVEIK	1.8
H1 variant IgG1 (antibody, V domains shown) VH: EVQLVESGGGLVQPGGSLRLSCAASGYAFAGAWMNWVRQAPGKGLEWVGMIHPSDSETRYNQKFKDRFTISVDKSKNTLYLQMNSLRAEDTAVYYCARGIYFYGTTYFDYWGQGTLVTVSS VL: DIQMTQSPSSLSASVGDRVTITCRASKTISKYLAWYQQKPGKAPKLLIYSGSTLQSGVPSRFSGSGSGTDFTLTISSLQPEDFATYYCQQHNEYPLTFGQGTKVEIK	5.9
H2A1 variant IgG1 (antibody, V domains shown) VH: EVQLVESGGGLVQPGGSLRLSCAASGYSFTGHWMNWVRQAPGKGLEWVGMIAPADSETRYNQKFKDRFTISVDKSKNTLYLQMNSLRAEDTAVYYCARGIYFYGTTYFDYWGQGTLVTVSS VL: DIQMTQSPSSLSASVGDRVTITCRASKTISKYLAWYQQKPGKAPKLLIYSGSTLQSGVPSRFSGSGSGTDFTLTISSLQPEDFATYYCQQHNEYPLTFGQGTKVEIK	10.8

For the binder LysH64Ala variant IgG1 (antibody, V domains shown) VH: EVQLVESGGGLVQPGGSLRLSCAASGYSFTGHWMNWVRQAPGKGLEWVGMIHPSDSETRYNQKFADRFTISVDKSKNTLYLQMNSLRAEDTAVYYCARGIYFYGTTYFDYWGQGTLVTVSS VL: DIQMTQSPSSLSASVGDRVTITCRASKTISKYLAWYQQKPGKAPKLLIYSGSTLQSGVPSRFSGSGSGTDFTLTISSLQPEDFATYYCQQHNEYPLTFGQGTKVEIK , report Var.EC50/HuIgG1 EC50.
2.5
